# Tested on: 857933-349-R-J2-PDC complex spheroid viability
# Assay Notes: Anticancer human tumor 857933-349-R-J2-PDC patient-derived colon adenocarcinoma cell line growth inhibition [POLQ]
# Measurement Conditions: second compound 3.16 µM; first compound 0.0316 µM; stronger effect = lower value
Measure Name: viability, T/C (%)
Field: numeric (%). Do not append units.

Look over these answered cases.
Compound	Unit Info	Meas Value
CC(C)n1c(=O)n(C)c2cnc3cc(F)c(-c4ccc(OCCCN5CCCCC5)nc4)cc3c21 + Nc1ccc(C#CCN(C(=O)Cc2ncc(C(F)(F)F)cc2C(F)(F)F)c2ccc(F)cc2)nn1	%	91.7
CC(C)n1c(=O)n(C)c2cnc3cc(F)c(-c4ccc(OCCCN5CCCCC5)nc4)cc3c21 + COC1C(OC(N)=O)C(O)C(Oc2ccc3c(O)c(NC(=O)c4ccc(O)c(CC=C(C)C)c4)c(=O)oc3c2C)OC1(C)C	%	110

Turning now to a further compound:
Entry CCCS(=O)(=O)Nc1ccc(F)c(C(=O)c2c[nH]c3ncc(-c4ccc(Cl)cc4)cc23)c1F + Cc1cccc(N(C)C(=O)C2C(O)CCN2c2nc(C)cc(C(F)(F)F)c2C#N)c1 has what viability, T/C?
92.1

---

# System: 857933-349-R-J2-PDC complex spheroid viability
# Assay Notes: Anticancer human tumor 857933-349-R-J2-PDC cell line growth inhibition [POLQ];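 further: spheroids exposed to compounds for seven days before readout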
# Measurement Conditions: second compound 1 µM; first compound 3.16 µM; stronger effect = lower value
# viability, T/C listing for each entry below
Number in %, nothing else.

Reference set, count: 5
Molecule	Unit Info	viability, T/C
O=C(c1cc(Cc2n[nH]c(=O)c3ccccc23)ccc1F)N1CCN(C(=O)C2CC2)CC1 + Nc1ccc(C#CCN(C(=O)Cc2ncc(C(F)(F)F)cc2C(F)(F)F)c2ccc(F)cc2)nn1	%	82.6
COc1cc2cc(C(=O)CCC(=O)O)sc2cc1OC + COC1C(OC(N)=O)C(O)C(Oc2ccc3c(O)c(NC(=O)c4ccc(O)c(CC=C(C)C)c4)c(=O)oc3c2C)OC1(C)C	%	110
C=CC(=O)N1CCN(c2nc(=O)n(-c3c(C)ccnc3C(C)C)c3nc(-c4c(O)cccc4F)c(F)cc23)C(C)C1 (stereo unspecified) + Cc1cccc(N(C)C(=O)C2C(O)CCN2c2nc(C)cc(C(F)(F)F)c2C#N)c1	%	113
CC(C)n1c(=O)n(C)c2cnc3cc(F)c(-c4ccc(OCCCN5CCCCC5)nc4)cc3c21 + Nc1ccc(C#CCN(C(=O)Cc2ncc(C(F)(F)F)cc2C(F)(F)F)c2ccc(F)cc2)nn1	%	95.2
O=c1[nH]cc(F)c(=O)[nH]1 + Cc1cccc(N(C)C(=O)C2C(O)CCN2c2nc(C)cc(C(F)(F)F)c2C#N)c1	%	50.7

Alright, here's another molecule for you.
Enter reported viability, T/C observed with 857933-349-R-J2-PDC complex spheroid viability for CC1COCCN1c1cc(C2(O)CC3CCC(C2)O3)c2cnn(-c3ccn[nH]3)c2n1 (stereo unspecified) + COC1C(OC(N)=O)C(O)C(Oc2ccc3c(O)c(NC(=O)c4ccc(O)c(CC=C(C)C)c4)c(=O)oc3c2C)OC1(C)C
49.9

---

As shown below, each of these compounds has a reported viability, T/C value.
# Test system: 857933-349-R-J2-PDC complex spheroid viability
# Assay Notes: Anticancer human tumor 857933-349-R-J2-PDC cell line growth inhibition [POLQ];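 further: spheroids exposed to compounds for seven days before readout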
# Measurement Conditions: second compound 10 µM; first compound 0.316 µM; stronger effect = lower value
# Experimental: Multicellular complex tumor spheroid response to Polymerase (POL) inhibitors (novobiocin, ART-558, RP6685) in combination with a variety of drugs and investigational agents in selected tumor cell lines The POL inhibitors (novobiocin, ART-558, and RP6685) were evaluated both individually and in combination with standard of care and investigational anticancer small molecules within a complex spheroid model of solid tumors. . […]
Write it as a number; the unit % goes unstated.

Form: Entry = CC(C)n1c(=O)n(C)c2cnc3cc(F)c(-c4ccc(OCCCN5CCCCC5)nc4)cc3c21 + COC1C(OC(N)=O)C(O)C(Oc2ccc3c(O)c(NC(=O)c4ccc(O)c(CC=C(C)C)c4)c(=O)oc3c2C)OC1(C)C | System = 857933-349-R-J2-PDC complex spheroid viability | viability, T/C = ____
106

And for CC1COCCN1c1cc(C2(O)CC3CCC(C2)O3)c2cnn(-c3ccn[nH]3)c2n1 (stereo unspecified) + Cc1cccc(N(C)C(=O)C2C(O)CCN2c2nc(C)cc(C(F)(F)F)c2C#N)c1 ?
50.5

Record: COc1cc2cc(C(=O)CCC(=O)O)sc2cc1OC + COC1C(OC(N)=O)C(O)C(Oc2ccc3c(O)c(NC(=O)c4ccc(O)c(CC=C(C)C)c4)c(=O)oc3c2C)OC1(C)C
108

Can you check C=CC(=O)N1CCN(c2nc(=O)n(-c3c(C)ccnc3C(C)C)c3nc(-c4c(O)cccc4F)c(F)cc23)C(C)C1 (stereo unspecified) + COC1C(OC(N)=O)C(O)C(Oc2ccc3c(O)c(NC(=O)c4ccc(O)c(CC=C(C)C)c4)c(=O)oc3c2C)OC1(C)C next?
118

Now the same for COc1cccc2c1C(=O)c1c(O)c3c(c(O)c1C2=O)CC(O)(C(=O)CO)CC3OC1CC(N)C(O)C(C)O1 (stereo unspecified) + Nc1ccc(C#CCN(C(=O)Cc2ncc(C(F)(F)F)cc2C(F)(F)F)c2ccc(F)cc2)nn1
26.8

Try this compound next: O=C(c1cc(Cc2n[nH]c(=O)c3ccccc23)ccc1F)N1CCN(C(=O)C2CC2)CC1 + Nc1ccc(C#CCN(C(=O)Cc2ncc(C(F)(F)F)cc2C(F)(F)F)c2ccc(F)cc2)nn1
95.5

Note, next up: Nc1ccn(C2OC(CO)C(O)C2(F)F)c(=O)n1 (stereo unspecified) + Nc1ccc(C#CCN(C(=O)Cc2ncc(C(F)(F)F)cc2C(F)(F)F)c2ccc(F)cc2)nn1
15

Now try COc1cc(C2c3cc4c(cc3C(OC3OC5COC(C)OC5C(O)C3O)C3COC(=O)C23)OCO4)cc(OC)c1O (stereo unspecified) + Cc1cccc(N(C)C(=O)C2C(O)CCN2c2nc(C)cc(C(F)(F)F)c2C#N)c1 .
49.1

Next record, please: C=CCn1c(=O)c2cnc(Nc3ccc(N4CCN(C)CC4)cc3)nc2n1-c1cccc(C(C)(C)O)n1 + COC1C(OC(N)=O)C(O)C(Oc2ccc3c(O)c(NC(=O)c4ccc(O)c(CC=C(C)C)c4)c(=O)oc3c2C)OC1(C)C
83.9

# iterate: CC(C)n1c(=O)n(C)c2cnc3cc(F)c(-c4ccc(OCCCN5CCCCC5)nc4)cc3c21 + Nc1ccc(C#CCN(C(=O)Cc2ncc(C(F)(F)F)cc2C(F)(F)F)c2ccc(F)cc2)nn1
114

Now give it for COc1cccc(OCCCN)c1-c1cc(Nc2cnc(C#N)cn2)n[nH]1 + COC1C(OC(N)=O)C(O)C(Oc2ccc3c(O)c(NC(=O)c4ccc(O)c(CC=C(C)C)c4)c(=O)oc3c2C)OC1(C)C too.
44

Next: CC1COCCN1c1cc(C2(S(C)(=N)=O)CC2)nc(-c2ccnc3[nH]ccc23)n1 (stereo unspecified) + Nc1ccc(C#CCN(C(=O)Cc2ncc(C(F)(F)F)cc2C(F)(F)F)c2ccc(F)cc2)nn1
93.5

What do you have for Nc1ccn(C2OC(CO)C(O)C2(F)F)c(=O)n1 (stereo unspecified) + Cc1cccc(N(C)C(=O)C2C(O)CCN2c2nc(C)cc(C(F)(F)F)c2C#N)c1 ?
33.6
